# SUBJECT_OF_TEST: 5-hydroxytryptamine receptor 1A (Homo sapiens, UniProt P08908)
# Sequence (P08908 whole entry): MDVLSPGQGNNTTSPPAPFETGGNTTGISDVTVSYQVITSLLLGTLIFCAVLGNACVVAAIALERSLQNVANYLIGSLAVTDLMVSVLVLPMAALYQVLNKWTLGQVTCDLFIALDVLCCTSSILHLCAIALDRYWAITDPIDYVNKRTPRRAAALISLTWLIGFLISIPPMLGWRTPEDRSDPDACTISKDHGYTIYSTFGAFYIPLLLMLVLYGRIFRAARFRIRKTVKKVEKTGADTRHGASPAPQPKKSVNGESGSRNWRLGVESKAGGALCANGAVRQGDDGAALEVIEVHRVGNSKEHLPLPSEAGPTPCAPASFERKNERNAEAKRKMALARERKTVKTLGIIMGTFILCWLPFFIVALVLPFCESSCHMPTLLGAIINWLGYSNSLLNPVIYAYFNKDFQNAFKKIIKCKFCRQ
# Format: functional, cell-based
# Lookup of reported AC50 keyed by entry

Examples with answers:
COMPOUND	AC50
Cc1cccc(N(C)C(=S)Oc2ccc3ccccc3c2)c1 [TOLNAFTATE]	> 10 µM
COc1ccc(/C=C/C(=O)Nc2ccccc2C(=O)O)cc1OC	> 30 µM
CCOc1cc(CC(=O)N[C@@H](CC(C)C)c2ccccc2N2CCCCC2)ccc1C(=O)O [REPAGLINIDE]	> 30 µM

(Q) Look up AC50 of NS(=O)(=O)c1cc(C2(O)NC(=O)c3ccccc32)ccc1Cl (centres undefined) and report it.
(A) > 10 µM

(Q) Look up AC50 of Cc1cnc(NC(=O)C2=C(O)c3ccccc3S(=O)(=O)N2C)s1 and report it.
(A) > 10 µM

* * *

# SUBJECT_OF_TEST: Histamine H2 receptor (Homo sapiens, UniProt P25021)
# Sequence (P25021 whole entry): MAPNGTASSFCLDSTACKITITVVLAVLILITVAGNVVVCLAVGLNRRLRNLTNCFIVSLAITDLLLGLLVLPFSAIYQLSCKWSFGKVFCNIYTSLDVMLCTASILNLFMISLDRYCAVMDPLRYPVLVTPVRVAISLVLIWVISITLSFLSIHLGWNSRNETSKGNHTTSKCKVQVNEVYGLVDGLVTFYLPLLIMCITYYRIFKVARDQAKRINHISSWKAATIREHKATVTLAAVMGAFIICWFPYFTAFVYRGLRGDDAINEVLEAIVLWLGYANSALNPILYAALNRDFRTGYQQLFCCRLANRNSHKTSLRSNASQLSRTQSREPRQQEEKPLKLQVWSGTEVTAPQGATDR
# Type: functional, cell-based
METRIC_NAME: AC50

(Q) Look up AC50 of CC(/C=C1\SC(=S)N(CC(=O)O)C1=O)=C\c1ccccc1 and report it.
(A) > 30 µM

(Q) Look up AC50 of Clc1ccc2c(c1)C(c1ccccc1)=NCc1nncn1-2 and report it.
(A) > 10 µM

(Q) Look up AC50 of N[C@H](Cc1cc(I)c(Oc2cc(I)c(O)c(I)c2)c(I)c1)C(=O)O and report it.
(A) > 10 µM

(Q) Look up AC50 of CN(C)c1cc(NC(=O)CNC(C)(C)C)c(O)c2c1C[C@H]1C[C@H]3[C@H](N(C)C)C(O)=C(C(N)=O)C(=O)[C@@]3(O)C(O)=C1C2=O and report it.
(A) > 30 µM

(Q) Look up AC50 of CC1(C)C(C=C(Cl)Cl)C1C(=O)OCc1cccc(Oc2ccccc2)c1 (stereo not given) and report it.
(A) > 10 µM

* * *

Here we list compounds with their recorded AC50 when tested on Alpha-1A adrenergic receptor (Homo sapiens). Also: assay procedure not described here.
Sequence (P35348 whole entry): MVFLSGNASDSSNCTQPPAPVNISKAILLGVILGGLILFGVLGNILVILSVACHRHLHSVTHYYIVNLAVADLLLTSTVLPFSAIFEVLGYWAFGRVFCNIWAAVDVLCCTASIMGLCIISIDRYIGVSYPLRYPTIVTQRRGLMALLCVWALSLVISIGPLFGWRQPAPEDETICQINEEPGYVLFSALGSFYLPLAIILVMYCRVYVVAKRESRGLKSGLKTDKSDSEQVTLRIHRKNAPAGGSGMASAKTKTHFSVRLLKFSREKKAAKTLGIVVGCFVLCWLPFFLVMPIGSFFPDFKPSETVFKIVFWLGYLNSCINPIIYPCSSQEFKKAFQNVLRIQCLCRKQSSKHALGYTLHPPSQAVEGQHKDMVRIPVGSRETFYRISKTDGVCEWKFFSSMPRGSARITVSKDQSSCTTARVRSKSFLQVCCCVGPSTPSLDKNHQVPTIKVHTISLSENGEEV

Examples with answers:
COMPOUND	AC50
CN1C[C@H](C(=O)N[C@]2(C)O[C@@]3(O)[C@@H]4CCCN4C(=O)[C@H](Cc4ccccc4)N3C2=O)C[C@@H]2c3cccc4[nH]cc(c34)C[C@H]21 [DIHYDROERGOTAMINE]	0.0376 µM
C=CC(N)CCC(=O)O (stereo not given)	> 10 µM
NCCCC(O)(P(=O)(O)O)P(=O)(O)O	> 10 µM
O=C1CN=C(c2ccccc2)c2cc(Cl)ccc2N1	> 10 µM

Turning to the following compound.
(Q) State AC50 (Alpha-1A adrenergic receptor (Homo sapiens)) of Cn1c(=O)c2[nH]cnc2n(C)c1=O .
(A) > 10 µM

* * *

# SUBJECT_OF_TEST: Growth hormone secretagogue receptor type 1 (Homo sapiens)
# Sequence (Q92847 whole entry): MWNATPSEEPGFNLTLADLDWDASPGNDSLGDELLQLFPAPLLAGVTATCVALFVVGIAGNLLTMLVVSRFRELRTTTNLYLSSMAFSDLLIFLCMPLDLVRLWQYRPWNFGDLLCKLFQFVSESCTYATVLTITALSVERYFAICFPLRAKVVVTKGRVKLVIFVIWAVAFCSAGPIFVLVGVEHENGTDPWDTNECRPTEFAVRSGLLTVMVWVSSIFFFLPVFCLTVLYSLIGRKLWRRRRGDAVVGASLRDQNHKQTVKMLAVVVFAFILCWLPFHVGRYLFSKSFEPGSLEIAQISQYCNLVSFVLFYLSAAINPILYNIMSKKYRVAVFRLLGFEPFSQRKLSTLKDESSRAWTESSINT
# Lookup of reported AC50 keyed by entry

Examples with answers:
MOLECULE	AC50
CCCN(CCC)CCc1cccc2c1CC(=O)N2	> 30 µM
CCCNC(C)C(=O)Nc1ccccc1C (stereo not drawn)	> 30 µM
Nc1ccc(C(=O)O)c(O)c1	> 30 µM
CNCCC=C1c2ccccc2CCc2ccccc21	> 30 µM
CC(=O)O[C@H]1C[C@@H]2CC[C@@H]3[C@H](CC[C@@]4(C)[C@H]3C[C@H]([N+]3(C)CCCCC3)[C@@H]4OC(C)=O)[C@@]2(C)C[C@@H]1[N+]1(C)CCCCC1	> 10 µM

Turning to the following molecule.
(Q) Look up AC50 of CCCN(CC)C(CC)C(=O)Nc1c(C)cccc1C (stereo not drawn) and report it.
(A) > 30 µM

* * *

# SUBJECT_OF_TEST: Alpha-2C adrenergic receptor (Homo sapiens, UniProt P18825)
# Sequence (P18825 whole entry): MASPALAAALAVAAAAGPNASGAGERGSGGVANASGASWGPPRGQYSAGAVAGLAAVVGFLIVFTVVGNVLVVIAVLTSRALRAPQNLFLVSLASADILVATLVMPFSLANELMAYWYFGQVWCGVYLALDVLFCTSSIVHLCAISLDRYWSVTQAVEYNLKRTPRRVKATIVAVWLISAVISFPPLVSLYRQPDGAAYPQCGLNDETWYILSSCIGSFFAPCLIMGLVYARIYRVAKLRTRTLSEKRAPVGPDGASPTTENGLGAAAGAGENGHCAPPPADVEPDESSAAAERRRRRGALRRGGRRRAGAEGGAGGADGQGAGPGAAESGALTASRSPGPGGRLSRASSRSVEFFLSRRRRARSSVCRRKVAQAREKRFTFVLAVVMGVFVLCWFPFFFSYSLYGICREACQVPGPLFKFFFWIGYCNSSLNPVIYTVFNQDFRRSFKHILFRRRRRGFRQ
# Format: functional
METRIC_NAME: AC50

Examples with answers:
MOLECULE	AC50
CCCCCCOC(=O)CCC(=O)CN [HEXAMINOLEVULINATE]	> 30 µM
CNC(=O)Oc1ccc2c(c1)[C@]1(C)CCN(C)[C@@H]1N2C [PHYSOSTIGMINE]	> 30 µM
CC[C@@H](CO)NC(=O)[C@@H]1C=C2c3cccc4[nH]cc(c34)C[C@H]2N(C)C1 [METHYLERGONOVINE]	1.7 µM
CC(=N)N1CC[C@H](SC2=C(C(=O)O)N3C(=O)[C@H]([C@@H](C)O)[C@H]3C2)C1	> 300 µM
O=C1CN2Cc3c(ccc(Cl)c3Cl)N=C2N1 [ANAGRELIDE]	> 10 µM
CC(=O)c1ccc2c(c1)N(CCCN1CCC(CCO)CC1)c1ccccc1S2 [PIPERACETAZINE]	0.37 µM
COc1ccnc(C[S+]([O-])c2nc3ccc(OC(F)F)cc3[nH]2)c1OC (centres undefined) [PANTOPRAZOLE]	> 10 µM
CC1(C)S[C@@H]2[C@H](NC(=O)[C@H](N)c3ccc(O)cc3)C(=O)N2[C@H]1C(=O)O [AMOXICILLIN]	> 30 µM
C#Cc1cccc(Nc2ncnc3cc(OCCOC)c(OCCOC)cc23)c1 [ERLOTINIB]	> 30 µM
CCCC(C)(COC(N)=O)COC(=O)NC(C)C (centres undefined) [CARISOPRODOL]	> 10 µM

(Q) State AC50 (Alpha-2C adrenergic receptor (Homo sapiens, UniProt P18825)) of Nc1ccn([C@@H]2O[C@H](CO)[C@@H](O)C2(F)F)c(=O)n1 [GEMCITABINE] .
(A) > 10 µM

(Q) State AC50 (Alpha-2C adrenergic receptor (Homo sapiens, UniProt P18825)) of Nc1nc(O)c2ncn(COC(CO)CO)c2n1 [GANCICLOVIR] .
(A) > 30 µM

* * *

# SUBJECT_OF_TEST: Adenosine receptor A1 (Homo sapiens, UniProt P30542)
# Sequence (P30542 whole entry): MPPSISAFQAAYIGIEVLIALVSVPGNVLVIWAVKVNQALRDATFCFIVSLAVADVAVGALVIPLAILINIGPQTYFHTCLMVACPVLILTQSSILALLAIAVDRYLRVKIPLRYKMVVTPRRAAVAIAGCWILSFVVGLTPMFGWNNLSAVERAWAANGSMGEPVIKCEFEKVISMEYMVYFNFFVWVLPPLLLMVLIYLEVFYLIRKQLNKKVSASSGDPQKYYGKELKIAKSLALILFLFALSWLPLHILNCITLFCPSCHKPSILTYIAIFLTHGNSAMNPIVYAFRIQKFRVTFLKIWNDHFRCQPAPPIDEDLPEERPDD
# Lookup of reported AC50 keyed by entry

Examples with answers:
COMPOUND	SUBJECT_OF_TEST	AC50
COCCOC(=O)C1=C(C)NC(C)=C(C(=O)OC/C=C/c2ccccc2)C1c1cccc([N+](=O)[O-])c1 (centres undefined) [CILNIDIPINE]	Adenosine receptor A1 (Homo sapiens, UniProt P30542)	> 30 µM
C=CC(N)CCC(=O)O (centres undefined) [VIGABATRIN]	Adenosine receptor A1 (Homo sapiens, UniProt P30542)	> 10 µM
NS(=O)(=O)c1cc(C2(O)NC(=O)c3ccccc32)ccc1Cl (centres undefined) [CHLORTHALIDONE]	Adenosine receptor A1 (Homo sapiens, UniProt P30542)	> 10 µM
N#C[C@@H]1CCCN1C(=O)CNC12CC3CC(CC(O)(C3)C1)C2 [VILDAGLIPTIN]	Adenosine receptor A1 (Homo sapiens, UniProt P30542)	> 30 µM

(Q) Look up AC50 of OCCN1CCN(CC/C=C2/c3ccccc3Sc3ccc(Cl)cc32)CC1 [ZUCLOPENTHIXOL] and report it.
(A) > 10 µM

(Q) Look up AC50 of Clc1ccc2c(c1)C(c1ccccc1)=NCc1nncn1-2 [ESTAZOLAM] and report it.
(A) > 30 µM

(Q) Look up AC50 of CCN(CC)C(=O)C1CN2CCc3cc(OC)c(OC)cc3C2CC1OC(C)=O (centres undefined) [BENZQUINAMIDE] and report it.
(A) > 30 µM

(Q) Look up AC50 of COc1ccnc(C[S+]([O-])c2nc3ccc(OC(F)F)cc3[nH]2)c1OC (centres undefined) [PANTOPRAZOLE] and report it.
(A) > 30 µM

(Q) Look up AC50 of CC(C)(C)NCC(O)c1cc(Cl)c(N)c(Cl)c1 (centres undefined) [CLENBUTEROL] and report it.
(A) > 30 µM
